These entries and their values trace back to patent US12157746B2.

Quick reference for IC50 among some compounds
- Target Under Test: human TLR8 (Homo sapiens, UniProt Q9NR97)
- Sequence (Q9NR97 27-1041): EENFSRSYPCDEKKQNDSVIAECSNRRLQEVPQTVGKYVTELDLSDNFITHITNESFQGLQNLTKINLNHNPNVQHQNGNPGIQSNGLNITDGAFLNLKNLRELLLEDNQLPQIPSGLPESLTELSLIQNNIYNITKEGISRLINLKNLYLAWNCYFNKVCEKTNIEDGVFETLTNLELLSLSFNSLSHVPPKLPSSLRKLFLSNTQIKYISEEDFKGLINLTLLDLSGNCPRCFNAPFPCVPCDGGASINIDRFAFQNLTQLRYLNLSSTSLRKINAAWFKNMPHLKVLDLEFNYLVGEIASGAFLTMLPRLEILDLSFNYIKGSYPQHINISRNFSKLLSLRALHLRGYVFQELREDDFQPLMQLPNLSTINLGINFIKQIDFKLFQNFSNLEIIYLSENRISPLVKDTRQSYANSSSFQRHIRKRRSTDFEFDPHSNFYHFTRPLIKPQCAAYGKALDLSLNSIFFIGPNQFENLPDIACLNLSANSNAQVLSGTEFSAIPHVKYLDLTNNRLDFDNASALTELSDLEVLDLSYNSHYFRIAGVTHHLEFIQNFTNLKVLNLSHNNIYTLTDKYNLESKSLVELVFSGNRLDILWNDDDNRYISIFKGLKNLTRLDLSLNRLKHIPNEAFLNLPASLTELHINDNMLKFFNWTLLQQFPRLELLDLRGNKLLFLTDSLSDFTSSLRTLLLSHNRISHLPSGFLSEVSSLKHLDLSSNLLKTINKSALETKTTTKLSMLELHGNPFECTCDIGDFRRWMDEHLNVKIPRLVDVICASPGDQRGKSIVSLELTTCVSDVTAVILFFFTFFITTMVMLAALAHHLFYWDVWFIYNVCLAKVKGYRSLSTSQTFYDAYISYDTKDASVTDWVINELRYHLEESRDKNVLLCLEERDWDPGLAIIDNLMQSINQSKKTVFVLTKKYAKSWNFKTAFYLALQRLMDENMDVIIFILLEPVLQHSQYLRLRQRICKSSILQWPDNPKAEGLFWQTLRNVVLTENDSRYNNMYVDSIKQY
- Assay Overview: HEK293-Blue-hTLR-8 cells assay
- Condition Notes: HEK293-Blue-hTLR8 cells, R848 stimulation, 20 hrs, SEAP reporter; read-out: HEK/hTLR8 IC50

| Compound | IC50 |
| --- | --- |
| CO[C@H]1CNC[C@@H]1Nc1ccc2c(c1)CN1[C@H](C)CN(c3ccc(C#N)c4ncccc34)C[C@H]21 | < 3.2 nM |
| C[C@@H]1CN(c2ccc(C#N)c3ncccc23)C[C@@H]2c3ccc(N4CCOCC(N)C4)cc3CN12 (stereo partly shown) | < 3.2 nM |
| C[C@@H]1CN(c2ccc(C#N)c3ncccc23)C[C@@H]2c3ccc(NCC4COCCN4)cc3CN12 (stereo partly shown) | < 3.2 nM |
| C[C@@H]1CN(c2ccc(C#N)c3ncccc23)C[C@@H]2c3ccc(N4CCC(N)(CO)C4)cc3CN12 (stereo partly shown) | < 3.2 nM |
| C[C@@H]1CN(c2ccc(C#N)c3ncccc23)C[C@@H]2c3ccc(N4C[C@@H](N)[C@](C)(O)C4)cc3CN12 [Example 45A] | 1.5 nM |
| CN[C@H]1CN(c2ccc3c(c2)CN2[C@H](C)CN(c4ccc(C#N)c5ncccc45)C[C@H]32)C[C@@H]1O | < 3.2 nM |
| C[C@@H]1CN(c2ccc(Cl)c3ncccc23)C[C@@H]2c3ccc(N[C@H]4CNC[C@H]4F)cc3CN12 | 2.8 nM |
| COC1CN(c2ccc3c(c2)CN2C3CN(c3ccc(C#N)c4ncccc34)C[C@H]2C)CC1N (single isomer, unassigned) [Example 16B] | < 3.2 nM |
| C[C@@H]1CN(c2ccc(C#N)c3ncccc23)C[C@@H]2c3ccc(N[C@H]4CNC[C@H]4F)cc3CN12 | < 3.2 nM |
| C[C@@H]1CN(c2ccc(C#N)c3ncccc23)C[C@@H]2c3ccc(N[C@@H]4CCCNC4)cc3CN12 | < 3.2 nM |
| C[C@@H]1CN(c2ccc(C#N)c3ncccc23)C[C@@H]2c3cccc(N4CCNCC4)c3CN12 | < 3.2 nM |
| Cc1ccc(N2C[C@@H](C)N3Cc4cc(N[C@H]5CNC[C@H]5F)ccc4[C@H]3C2)c2nccnc12 | 12.7 nM |
| COC12CNCC1CN(c1ccc3c(c1)CN1[C@H](C)CN(c4ccc(C#N)c5ncccc45)C[C@H]31)C2 (stereo partly shown) | < 3.2 nM |
| C[C@@H]1CN(c2ccc(C#N)c3ncccc23)C[C@@H]2c3ccc(N4CC5CNCC(C4)O5)cc3CN12 | < 3.2 nM |
| CO[C@@H]1CN(c2ccc3c(c2)CN2[C@H](C)CN(c4ccc(C#N)n5nccc45)C[C@H]32)CC[C@H]1N | 3.2 nM |
| C[C@@H]1CN(c2ccc(C#N)n3nccc23)C[C@@H]2c3ccc(N4CCOC[C@H](N)C4)cc3CN12 | 5.2 nM |
| C[C@@H]1CN(c2ccc(C#N)n3nccc23)C[C@@H]2c3ccc(N4C[C@@H](N)[C@H](O)C4)cc3CN12 | 5 nM |
| C[C@@H]1CN(c2ccc(C#N)c3ncccc23)C[C@@H]2c3ccc(N4CC(N)C4)cc3CN12 | < 3.2 nM |
| C[C@@H]1CN(c2ccc(C#N)c3ncccc23)C[C@@H]2c3ccc(N[C@@H]4CNC[C@H]4F)cc3CN12 | < 3.2 nM |
| C[C@@H]1CN(c2ccc(C#N)c3ncccc23)C[C@@H]2c3ccc(N4C[C@H](N)[C@@H](O)C4)cc3CN12 [Example 40A] | 1.4 nM |
| C[C@@H]1CN(c2ccc(C#N)c3ncccc23)C[C@@H]2c3ccc(N4CCNCC(C)(O)C4)cc3CN12 (stereo partly shown) | < 3.2 nM |
| C[C@@H]1CN(c2ccc(C#N)n3nccc23)C[C@@H]2c3ccc(N4CCNCC4)cc3CN12 | < 3.2 nM |
| C[C@@H]1CN(c2ccc(C#N)c3nccnc23)C[C@@H]2c3ccc(N4CCNCC4)cc3CN12 | < 3.2 nM |
| C[C@@H]1CN(c2ccc(C#N)c3ncccc23)C[C@@H]2c3ccc(N[C@@H]4CNC[C@@H]4F)cc3CN12 | < 3.2 nM |
| C[C@@H]1CN(c2ccc(C#N)c3ncccc23)C[C@@H]2c3cc(F)c(N4C[C@H](N)[C@@](C)(O)C4)cc3CN12 | 1 nM |
| C[C@@H]1CN(c2ccc(C#N)c3ncccc23)C[C@@H]2c3ccc(NC[C@@H]4C[C@H](F)CN4)cc3CN12 | 0.5 nM |
| C[C@@H]1CN(c2ccc(C#N)c3ncccc23)C[C@@H]2c3ccc(N4CC5(CNC5)C4)cc3CN12 | < 3.2 nM |
| C[C@@H]1CN(c2ccc(C#N)n3nccc23)C[C@@H]2c3ccc(N4CC[C@@](C)(N)C4)cc3CN12 | 4.8 nM |
